System: Escherichia coli ATCC BAA2469 (CRE, NDM-1-producing)
Test: In vivo antibacterial activity, intraperitoneal infection in mice (survival over 7 days)
Settings: mice, dose 0.35 mg/kg, one intravenous administration 1 hour post-infection, 7 days, 5 animals per group
Reported Number of surviving animals is given for each of the following molecules.
Remember to put the unit after the number in your answer.

In the examples that follow, each entry is paired with its recorded Number of surviving animals.
[[record]]
molecule = "COC[C@@H]1C[C@H]1C#CC#Cc1ccc(C(=O)N[C@H](C(=O)NO)C(C)(C)N)cc1"
reported_measurement = "0 individuals"

[[record]]
molecule = "COC[C@H]1C[C@H]1C#CC#Cc1ccc(C(=O)N[C@H](C(=O)NO)C(C)(C)N)cc1"
reported_measurement = "0 individuals"

[[record]]
molecule = "COCC1CC1C#CC#Cc1ccc(C(=O)NC(C(=O)NO)C(C)(C)N)cc1 (mixture of isomers) [Ia/Ib racemate]"
reported_measurement = "0 individuals"


Next, consider the following molecule.
Which Number of surviving animals reading was recorded for the molecule COC[C@@H]1C[C@@H]1C#CC#Cc1ccc(C(=O)N[C@H](C(=O)NO)C(C)(C)N)cc1 ?
0 individuals

###

Test system: ICR strain mice
Assay: Acute toxicity in mice, single tail vein injection
Type: in vivo
Settings: dose 100 mg/kg, one week
measured parameter: Mortality rate (%)
Write the value in % as a bare number.

These solved cases illustrate the format of a correct answer.
[[record]]
compound = "COCC1CC1C#CC#Cc1ccc(C(=O)NC(C(=O)NO)C(C)(C)N)cc1 (mixture of isomers) [Ia/Ib racemate]"
reported_measurement = 0

[[record]]
compound = "COC[C@H]1C[C@H]1C#CC#Cc1ccc(C(=O)N[C@H](C(=O)NO)C(C)(C)N)cc1"
reported_measurement = 0

[[record]]
compound = "COC[C@@H]1C[C@@H]1C#CC#Cc1ccc(C(=O)N[C@H](C(=O)NO)C(C)(C)N)cc1"
reported_measurement = 0


# Mortality rate lookup, item CC(C)(N)[C@H](NC(=O)c1ccc(C#CC#C[C@@H]2C[C@H]2CO)cc1)C(=O)NO
67

###

Recorded MIC, one value per entry.
System: Escherichia coli
Test: In vitro antibacterial activity, agar dilution method (MIC)
Type: cell-based
Details: Escherichia coli, 18 h, Escherichia coli 13-43 (mcr-1); agar dilution, 35°C, 18 hours; read-out: MIC
Number in µg/mL, nothing else.

Field: example entries. Status: answers known.
[[record]]
molecule = "COC[C@@H]1C[C@H]1C#CC#Cc1ccc(C(=O)N[C@H](C(=O)NO)C(C)(C)N)cc1"
measured_parameter = "MIC"
reported_measurement = 0.12

[[record]]
molecule = "CO/N=C(\\C(=O)N[C@@H]1C(=O)N2C(C(=O)[O-])=C(C[N+]3(C)CCCC3)CS[C@H]12)c1csc(N)n1 [Cefepime]"
measured_parameter = "MIC"
reported_measurement = 2


Could you tell me which MIC is on file for C[C@@H](O)[C@H]1C(=O)N2C(C(=O)O)=C(SCCN=CN)C[C@H]12 ?
0.12

MIC lookup needed for C[C@H]1COc2c(N3CCN(C)CC3)c(F)cc3c(=O)c(C(=O)O)cn1c23 , thanks.
64

Recorded MIC of C[C@H]1[C@H](NC(=O)/C(=N\OC(C)(C)C(=O)O)c2csc(N)n2)C(=O)N1S(=O)(=O)O , please.
16

Which MIC reading was recorded for the molecule COC[C@H]1C[C@H]1C#CC#Cc1ccc(C(=O)N[C@H](C(=O)NO)C(C)(C)N)cc1 ?
0.25

Please give the measured MIC for this molecule: COCC1CC1C#CC#Cc1ccc(C(=O)N[C@H](C(=O)NO)C(C)(C)N)cc1 (some centres unmarked)
0.5

###

Tested on: Shigella flexneri
Experiment: In vitro antibacterial activity, agar dilution method (MIC)
Format: cell-based
Conditions: ATCC12022, Shigella flexneri ATCC 12022, 35°C, 18 hours, read-out: MIC
Reported MIC is given for each of the following molecules.

[[record]]
molecule = "C[C@@H](O)[C@H]1C(=O)N2C(C(=O)O)=C(S[C@@H]3CN[C@H](C(=O)N(C)C)C3)[C@H](C)[C@H]12"
reported_measurement = "≤ 0.03 µg/mL"

[[record]]
molecule = "C[C@H]1COc2c(N3CCN(C)CC3)c(F)cc3c(=O)c(C(=O)O)cn1c23"
reported_measurement = "≤ 0.03 µg/mL"


Now consider the entry below.
Entry CO/N=C(\C(=O)N[C@@H]1C(=O)N2C(C(=O)[O-])=C(C[N+]3(C)CCCC3)CS[C@H]12)c1csc(N)n1 [Cefepime] has what MIC?
≤ 0.03 µg/mL

###

MIC values, listed per item
Test system: Escherichia coli
Experiment: In vitro antibacterial activity, agar dilution method (MIC)
Type: cell-based
Settings: Escherichia coli, 18 h, Escherichia coli 13-43 (mcr-1); agar dilution, 35°C, 18 hours; read-out: MIC
Only the number, expressed in µg/mL, is required.

Recorded results for 2 molecules are shown here.
[[record]]
molecule = "COC[C@@H]1C[C@@H]1C#CC#Cc1ccc(C(=O)N[C@H](C(=O)NO)C(C)(C)N)cc1 [Id]"
reported_measurement = 0.5

[[record]]
molecule = "NCC[C@H](O)C(=O)N[C@@H]1C[C@H](N)[C@@H](O[C@H]2O[C@H](CN)[C@@H](O)[C@H](O)[C@H]2O)[C@H](O)[C@H]1O[C@H]1O[C@H](CO)[C@@H](O)[C@H](N)[C@H]1O [Amikacin]"
reported_measurement = 4


From here, focus on the item given below.
Kindly state the measured MIC obtained for CO[C@H]1CCC[C@@H]1C#CC#Cc1ccc(C(=O)N[C@H](C(=O)NO)C(C)(C)N)cc1 [A] with Escherichia coli.
1
